Where these numbers come from: ChEMBL document CHEMBL4364279

Answer each item with its documented IC50.
# tested_on: UniProtKB P81908
# Sequence (P81908 whole entry): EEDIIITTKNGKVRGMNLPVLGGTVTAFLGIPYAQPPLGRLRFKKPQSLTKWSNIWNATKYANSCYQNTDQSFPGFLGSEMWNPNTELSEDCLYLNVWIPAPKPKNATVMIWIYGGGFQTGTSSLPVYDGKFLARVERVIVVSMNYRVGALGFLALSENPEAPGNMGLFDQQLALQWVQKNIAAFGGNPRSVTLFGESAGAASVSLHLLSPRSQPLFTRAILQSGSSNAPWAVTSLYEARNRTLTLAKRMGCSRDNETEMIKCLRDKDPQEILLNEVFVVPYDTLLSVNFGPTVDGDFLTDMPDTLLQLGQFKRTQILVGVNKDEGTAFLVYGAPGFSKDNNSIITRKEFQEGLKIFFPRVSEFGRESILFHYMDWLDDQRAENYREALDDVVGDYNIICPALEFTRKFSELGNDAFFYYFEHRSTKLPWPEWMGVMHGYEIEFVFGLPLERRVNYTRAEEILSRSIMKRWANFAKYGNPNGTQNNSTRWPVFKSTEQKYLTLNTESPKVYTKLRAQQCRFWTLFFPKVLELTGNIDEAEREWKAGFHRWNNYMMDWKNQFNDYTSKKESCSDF
# protocol_notes: Inhibition of equine serum BuChE using S-butyrylthiocholine iodide as susbtrate preincubated for 6 mins followed by substrate addition measured up to 3 mins by Ellman's method
Write it as a number; the unit µM goes unstated.

Qu. Return IC50 (reported value) for this molecule: "O=C(/C=C/c1cccc(OC(=O)N2CCOCC2)c1)c1ccccc1OC(=O)N1CCOCC1"
Ans. 2

Qu. Return IC50 (reported value) for this molecule: "CCN(C)C(=O)Oc1cccc(/C=C/C(=O)c2ccccc2O)c1"
Ans. 3.1

Qu. Return IC50 (reported value) for this molecule: "O=C(/C=C/c1cccc(OC(=O)N2CCOCC2)c1)c1ccccc1O"
Ans. 5.1

Qu. Return IC50 (reported value) for this molecule: "O=C(/C=C/c1cccc(OC(=O)N(c2ccccc2)c2ccccc2)c1)c1ccccc1OC(=O)N(c1ccccc1)c1ccccc1"
Ans. 42.6

Qu. Return IC50 (reported value) for this molecule: "O=C(/C=C/c1cccc(OC(=O)N(c2ccccc2)c2ccccc2)c1)c1ccccc1O"
Ans. 56.2

Qu. Return IC50 (reported value) for this molecule: "CON(C)C(=O)Oc1cccc(/C=C/C(=O)c2ccccc2OC(=O)N(C)OC)c1"
Ans. 1.5

Qu. Return IC50 (reported value) for this molecule: "CCN(CC)C(=O)Oc1cccc(/C=C/C(=O)c2ccccc2OC(=O)N(CC)CC)c1"
Ans. 3.1

----------
# tested_on: Acetylcholinesterase (AChE) (Electrophorus electricus, UniProt O42275)
# Sequence (O42275 whole entry): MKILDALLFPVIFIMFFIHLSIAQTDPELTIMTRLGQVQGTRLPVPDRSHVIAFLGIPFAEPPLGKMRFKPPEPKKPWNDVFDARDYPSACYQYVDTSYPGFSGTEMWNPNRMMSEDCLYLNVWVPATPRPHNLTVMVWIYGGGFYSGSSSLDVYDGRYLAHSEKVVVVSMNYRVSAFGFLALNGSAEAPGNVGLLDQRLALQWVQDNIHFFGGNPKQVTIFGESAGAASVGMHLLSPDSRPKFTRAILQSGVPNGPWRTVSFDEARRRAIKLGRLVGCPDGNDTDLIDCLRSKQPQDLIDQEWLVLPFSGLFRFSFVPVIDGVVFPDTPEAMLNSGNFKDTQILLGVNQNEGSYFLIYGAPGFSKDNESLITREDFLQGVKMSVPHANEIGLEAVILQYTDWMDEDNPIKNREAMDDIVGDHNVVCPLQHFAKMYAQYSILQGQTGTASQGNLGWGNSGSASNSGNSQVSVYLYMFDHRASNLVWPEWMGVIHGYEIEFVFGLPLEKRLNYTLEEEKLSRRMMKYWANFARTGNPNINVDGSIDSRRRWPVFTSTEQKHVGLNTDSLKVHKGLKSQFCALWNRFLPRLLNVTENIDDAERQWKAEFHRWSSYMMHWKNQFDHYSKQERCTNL
# protocol_notes: Inhibition of electric eel AChE at 25 uM using acetylthiocholine iodide as substrate incubated for 15 mins by Ellman's method relative to control
# experimental_conditions: electric eel acetylcholinesterase (isolated enzyme), probe acetylthiocholine iodide
Label met when inhibition at 0.25 h, 25 µM >= 20%; otherwise not met.

Qu. For this compound, is measured inhibition at 0.25 h, 25 µM 20% or higher? "CCN(CC)C(=O)Oc1cccc(/C=C/C(=O)c2ccccc2OC(=O)N(CC)CC)c1"
Ans. met

Qu. For this compound, is measured inhibition at 0.25 h, 25 µM 20% or higher? "CN(C)C(=O)Oc1cccc(/C=C/C(=O)c2ccccc2OC(=O)N(C)C)c1"
Ans. not met

Qu. For this compound, is measured inhibition at 0.25 h, 25 µM 20% or higher? "O=C(/C=C/c1cccc(OC(=O)N2CCOCC2)c1)c1ccccc1O"
Ans. met

Qu. For this compound, is measured inhibition at 0.25 h, 25 µM 20% or higher? "O=C(/C=C/c1cccc(OC(=O)N(c2ccccc2)c2ccccc2)c1)c1ccccc1OC(=O)N(c1ccccc1)c1ccccc1"
Ans. met

Qu. For this compound, is measured inhibition at 0.25 h, 25 µM 20% or higher? "O=C(/C=C/c1cccc(O)c1)c1ccccc1O"
Ans. met

----------
Answer each item with its documented inhibition at 12.5 µM.
# tested_on: Amine oxidase [flavin-containing] A (Homo sapiens)
# Sequence (P21397 whole entry): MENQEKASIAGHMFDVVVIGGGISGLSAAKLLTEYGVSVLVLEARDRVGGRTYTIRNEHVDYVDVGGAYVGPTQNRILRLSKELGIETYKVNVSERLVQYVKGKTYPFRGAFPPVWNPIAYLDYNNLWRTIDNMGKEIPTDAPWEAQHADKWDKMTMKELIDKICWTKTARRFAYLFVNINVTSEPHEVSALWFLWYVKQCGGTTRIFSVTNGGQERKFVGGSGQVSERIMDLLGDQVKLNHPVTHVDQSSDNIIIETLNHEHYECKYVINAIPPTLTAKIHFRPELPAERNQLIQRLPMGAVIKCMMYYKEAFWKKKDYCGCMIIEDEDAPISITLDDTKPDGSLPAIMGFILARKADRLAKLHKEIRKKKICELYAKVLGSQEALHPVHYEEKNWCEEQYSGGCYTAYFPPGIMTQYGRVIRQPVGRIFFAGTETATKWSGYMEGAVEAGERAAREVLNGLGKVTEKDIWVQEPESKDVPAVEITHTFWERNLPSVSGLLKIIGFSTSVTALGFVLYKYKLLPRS
# protocol_notes: Inhibition of recombinant human MAO-A expressed in baculovirus infected BTI insect cells at 12.5 uM using kynuramine as substrate measured after 30 mins by fluorescence based assay relative to control
# experimental_conditions: 0.5 h
Write it as a number; the unit % goes unstated.

Qu. Return inhibition at 12.5 µM (reported value) for this compound: "CCN(CC)C(=O)Oc1cccc(/C=C/C(=O)c2ccccc2OC(=O)N(CC)CC)c1"
Ans. 21.1

Qu. Return inhibition at 12.5 µM (reported value) for this compound: "CCN(C)C(=O)Oc1cccc(/C=C/C(=O)c2ccccc2OC(=O)N(C)CC)c1"
Ans. 28.4

Qu. Return inhibition at 12.5 µM (reported value) for this compound: "CN(C)C(=O)Oc1cccc(/C=C/C(=O)c2ccccc2OC(=O)N(C)C)c1"
Ans. 18.9

Qu. Return inhibition at 12.5 µM (reported value) for this compound: "O=C(/C=C/c1cccc(OC(=O)N2CCOCC2)c1)c1ccccc1O"
Ans. 17.4

Qu. Return inhibition at 12.5 µM (reported value) for this compound: "CON(C)C(=O)Oc1cccc(/C=C/C(=O)c2ccccc2O)c1"
Ans. 33.8

Qu. Return inhibition at 12.5 µM (reported value) for this compound: "CON(C)C(=O)Oc1cccc(/C=C/C(=O)c2ccccc2OC(=O)N(C)OC)c1"
Ans. 10.3

Qu. Return inhibition at 12.5 µM (reported value) for this compound: "CCN(CC)C(=O)Oc1cccc(/C=C/C(=O)c2ccccc2O)c1"
Ans. 38.1

Qu. Return inhibition at 12.5 µM (reported value) for this compound: "O=C(/C=C/c1cccc(OC(=O)N(c2ccccc2)c2ccccc2)c1)c1ccccc1OC(=O)N(c1ccccc1)c1ccccc1"
Ans. 18.2

Qu. Return inhibition at 12.5 µM (reported value) for this compound: "O=C(/C=C/c1cccc(OC(=O)N(c2ccccc2)c2ccccc2)c1)c1ccccc1O"
Ans. 18.2

Qu. Return inhibition at 12.5 µM (reported value) for this compound: "O=C(/C=C/c1cccc(OC(=O)N2CCOCC2)c1)c1ccccc1OC(=O)N1CCOCC1"
Ans. 20.9

Qu. Return inhibition at 12.5 µM (reported value) for this compound: "CCN(C)C(=O)Oc1cccc(/C=C/C(=O)c2ccccc2O)c1"
Ans. 16.4

Qu. Return inhibition at 12.5 µM (reported value) for this compound: "O=C(/C=C/c1cccc(O)c1)c1ccccc1O"
Ans. 28.1

Qu. Return inhibition at 12.5 µM (reported value) for this compound: "CN(C)C(=O)Oc1cccc(/C=C/C(=O)c2ccccc2O)c1"
Ans. 19.9
